Values from patent US20120283168A1

Target: human CCR10 (human) (UniProt P46092)
Sequence (P46092 whole entry): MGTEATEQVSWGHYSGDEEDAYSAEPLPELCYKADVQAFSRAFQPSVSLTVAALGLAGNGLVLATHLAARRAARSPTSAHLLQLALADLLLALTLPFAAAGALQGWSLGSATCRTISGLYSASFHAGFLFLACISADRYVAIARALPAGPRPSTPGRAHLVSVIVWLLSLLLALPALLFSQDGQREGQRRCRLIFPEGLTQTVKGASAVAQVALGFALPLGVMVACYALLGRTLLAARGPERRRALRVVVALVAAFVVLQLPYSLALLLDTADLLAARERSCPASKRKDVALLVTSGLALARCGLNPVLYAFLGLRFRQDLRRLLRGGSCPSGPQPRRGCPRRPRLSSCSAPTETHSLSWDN
Assay: cell-based or functional assay
Metric: IC50 (nM) Calcium Flux Assay

Below, each entry is followed by its recorded IC50 (nM) Calcium Flux Assay result.
In [3]: df
Out[3]:
                                  substance  reported
0  cyclo(-Trp-Cyp-Trp-Lys(4Oxa)-^DPro-Oic-) (peptide)       107
1  cyclo(-Trp-Cyp-Trp-Dap(CONH2)-^DPro-Oic-) (peptide)        20
2  cyclo(-Trp-Cyp-Trp-Dab(Ac)-^DPro-Oic-) (peptide)      30.3

[1] cyclo(-Trp-Cyp-Trp-Ala(Ppz)-^DPro-Oic-) (peptide)
[2] cyclo(-Trp-Cyp-Trp-Dab-^DPro-Pro((4R)4BrBn)-) (peptide)
Returns: the argument ( 1 or 2 ) having the larger IC50 (nM) Calcium Flux Assay. Field: selected label. Fill in the label of the entry you choose.
1
(1: 1060 nM, 2: 15.8 nM)
